- Tested on: HOP-92 NSCLC
- EXPERIMENT DESCRIPTION: NCI-60 one-dose screen, 48 h (100 = growth as untreated, 0 = no growth, -100 = all killed)
- CONDITION: 10 µM unless noted
The panel holds about 83,000 compounds, 20% with a hit somewhere; the sample as a whole holds those more often.
Is growth at least 80%? Then condition met. If not, condition not met.

- COMPOUND: "C#C[C@]1(O)CC[C@H]2[C@@H]3CC=C4c5sc(N6CCN(C)CC6)nc5CC[C@]4(C)[C@H]3CC[C@@]21C"
  QUALITATIVE LABEL: "condition met"
- COMPOUND: "CCOc1cccc(/C(N)=N/C(N)=N/c2nc3ccccc3s2)c1"
  QUALITATIVE LABEL: "condition met"
- COMPOUND: "COc1ccc(C(=O)c2c(N)c(C#N)cn2-c2ccc(Cl)cc2Cl)cc1"
  QUALITATIVE LABEL: "condition met"
- COMPOUND: "CC(C)NC(=O)c1cc(-c2ccc(NC(=O)Nc3ccc(F)c(C(F)(F)F)c3)cc2)nc2cccnc12"
  QUALITATIVE LABEL: "condition met"
- COMPOUND: "CCOC(=O)c1cnc2c(-c3ccc(Cl)c(Cl)c3)cnn2c1"
  QUALITATIVE LABEL: "condition not met"
- COMPOUND: "CC(C)(C)OC(=O)Nc1ccc(-c2cccc(Oc3ccc4nnc(Cl)n4n3)c2)cc1"
  QUALITATIVE LABEL: "condition not met"
- COMPOUND: "CSc1ccc(C(=NNS(=O)(=O)c2ccc(C)cc2)c2ccc(Cl)cc2)cc1"
  QUALITATIVE LABEL: "condition met"
- COMPOUND: "CC(Nc1ncnc2ccc(-c3cnc(N)nc3)cc12)c1ccccc1 (centres undefined)"
  QUALITATIVE LABEL: "condition not met"

---

- Tested on: MDA-MB-231 breast
- EXPERIMENT DESCRIPTION: NCI-60 one-dose screen, 48 h
- CONDITION: 10 µM unless noted
About 83,000 compounds went through this panel and 20% of them were active in at least one assay; those are over-represented in the sample as a whole. Calls of active or inactive are those of the source. Rule for the calls: active = growth percent below 10; inactive = the rest.
Possible outcomes: active, inactive

- STRUCTURE: "O=C(CCCCCCNC(=O)C(O)(O)C(F)(F)F)Nc1ccc(Cl)cc1"
  QUALITATIVE LABEL: "inactive"
- STRUCTURE: "CN1CCN(c2ccc(Nc3nc(NCCNC(=O)c4ccccc4)c4sccc4n3)cc2)CC1"
  QUALITATIVE LABEL: "inactive"
- STRUCTURE: "Cn1cc(-c2nnc(N)nc2-c2c[nH]c3ccc(Br)cc23)c2cc(Br)ccc21"
  QUALITATIVE LABEL: "inactive"
- STRUCTURE: "CC(C)NC(=O)c1cc(-c2ccc(NC(=O)Nc3ccc(F)cc3)cc2)nc2cccnc12"
  QUALITATIVE LABEL: "inactive"
- STRUCTURE: "CCOC(=O)c1c(NC(=O)c2ccc(C(F)(F)F)cc2)sc2c3c(ccc12)OCN(C)C3"
  QUALITATIVE LABEL: "inactive"
- STRUCTURE: "COc1cc2oc(-c3cccc(NC(=O)c4cccc([N+](=O)[O-])c4)c3)cc(=O)c2c(OC)c1OC"
  QUALITATIVE LABEL: "inactive"
- STRUCTURE: "COc1ccc(/C(=N\\N=C(N)N)c2ccc(Cl)cc2)cc1OC"
  QUALITATIVE LABEL: "inactive"
- STRUCTURE: "C[C@H](Nc1ncnc2ccc(-c3cnc(Cl)c(NS(C)(=O)=O)c3)cc12)c1ccccc1"
  QUALITATIVE LABEL: "active"
- STRUCTURE: "Cc1ccc2c(n1)C(=O)C(Cl)=C(Nc1cccc(C(F)(F)F)c1)C2=O"
  QUALITATIVE LABEL: "inactive"
- STRUCTURE: "CN1CCN(c2ccc(Nc3nc(NCCCNS(=O)(=O)c4ccc(Cl)cc4)c4sccc4n3)cc2)CC1"
  QUALITATIVE LABEL: "active"
- STRUCTURE: "CC(=O)OC[C@]12CC[C@@H](C(=O)/C=C/c3cccnc3)[C@@H]1[C@H]1CC[C@@H]3[C@@]4(C)CC[C@H](OC(C)=O)C(C)(C)[C@@H]4CC[C@@]3(C)[C@]1(C)CC2"
  QUALITATIVE LABEL: "active"
- STRUCTURE: "N#C/C(=C\\c1ccc(-c2ccc(Cl)c(Cl)c2)o1)C(=O)Nc1ncc(Cc2ccc(Cl)cc2)s1"
  QUALITATIVE LABEL: "inactive"
- STRUCTURE: "CN1CCN(CCNc2nc(-c3cccc(NS(=O)(=O)c4cccc5c(N(C)C)cccc45)c3)cs2)CC1"
  QUALITATIVE LABEL: "inactive"
- STRUCTURE: "O=C(NNc1nc2cc(F)cc(F)c2n2cccc12)c1cccnn1"
  QUALITATIVE LABEL: "inactive"
- STRUCTURE: "CC1=C(C)C(=O)C(Nc2cccc(C)c2)=C(Br)C1=O"
  QUALITATIVE LABEL: "inactive"
- STRUCTURE: "CN1c2ccccc2Sc2cc(/C=N/Nc3ccnc4cc(Cl)ccc34)ccc21"
  QUALITATIVE LABEL: "inactive"
- STRUCTURE: "C#C[C@]1(O)CC[C@H]2[C@@H]3CC=C4c5sc(NCc6ccccc6)nc5CC[C@]4(C)[C@H]3CC[C@@]21C"
  QUALITATIVE LABEL: "inactive"
- STRUCTURE: "O=C(Nc1ccc(N2CCOCC2)cc1)Nc1ccc2c(ccn2C(=O)c2cccc(F)c2)c1"
  QUALITATIVE LABEL: "inactive"
